Target: His-GST-TVMV-hRIPK1(1-324) (Homo sapiens (Human), UniProt Q13546)
Sequence (Q13546 1-324): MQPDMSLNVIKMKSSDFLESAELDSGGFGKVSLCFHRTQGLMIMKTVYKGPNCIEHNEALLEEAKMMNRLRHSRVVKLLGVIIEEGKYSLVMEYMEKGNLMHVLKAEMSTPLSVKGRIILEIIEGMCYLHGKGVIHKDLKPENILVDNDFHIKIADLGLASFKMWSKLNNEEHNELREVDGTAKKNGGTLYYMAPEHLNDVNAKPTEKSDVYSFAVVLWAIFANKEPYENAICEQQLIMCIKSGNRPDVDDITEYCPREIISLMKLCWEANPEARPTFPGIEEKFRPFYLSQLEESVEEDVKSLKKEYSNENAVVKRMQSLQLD
Experiment: RIPK1 HTRF Binding Assay
Details: HTRF binding, 1 h at rt; read-out: RIPK1 (IC50)
Where a name gives a salt, the structure may show the parent alone.
Field: pIC50. Provide a value for each of the molecules that follow.
One number for each entry, as −log10 of the molar value.

As a guide, the following entries are already answered.
{"columns": ["molecule", "subject.of.test", "pIC50"],
 "data": [
  ["COc1ncc(-c2ccc3nc(NC(C)=O)c(C)n3n2)cc1C(=O)NCc1cc(OC(F)(F)F)ccc1F", "His-GST-TVMV-hRIPK1(1-324) (Homo sapiens (Human), UniProt Q13546)", 7.60],
  ["COc1ncc(-c2ccc3nc(NC(C)=O)cn3n2)cc1C(=O)NC[C@H]1C[C@@H]1c1ccc(F)cc1", "His-GST-TVMV-hRIPK1(1-324) (Homo sapiens (Human), UniProt Q13546)", 6.84],
  ["COc1nc(C)c(-c2ccc3nc(NC(C)=O)cn3n2)cc1C(=O)NCc1cc(F)cc(F)c1OCC1CC1 [Example 287]", "His-GST-TVMV-hRIPK1(1-324) (Homo sapiens (Human), UniProt Q13546)", 8.40],
  ["CC(=O)Nc1cn2nc(-c3cnc(Cl)c(C(=O)NCc4cc(F)cc(F)c4OC(C)C4CCC4)c3)ccc2n1 (centres unmarked) [Example 273, TFA]", "His-GST-TVMV-hRIPK1(1-324) (Homo sapiens (Human), UniProt Q13546)", 8.40],
  ["COc1cc(F)c(-c2ccc3nc(NC(C)=O)cn3n2)cc1C(=O)NCc1cc(F)ccc1C(=O)N1CCCC1(C)C", "His-GST-TVMV-hRIPK1(1-324) (Homo sapiens (Human), UniProt Q13546)", 8.40],
  ["COc1cc(F)c(-c2ccc3nc(NC(C)=O)cn3n2)cc1C(=O)NCc1c(F)cccc1OC", "His-GST-TVMV-hRIPK1(1-324) (Homo sapiens (Human), UniProt Q13546)", 7.05],
  ["COc1ncc(-c2ccc3nc(NC(C)=O)cn3n2)cc1C(=O)N[C@@H](C)c1cc(C(F)(F)F)ccc1F", "His-GST-TVMV-hRIPK1(1-324) (Homo sapiens (Human), UniProt Q13546)", 7.08],
  ["COc1ncc(-c2ccc3nc(NC(C)=O)cn3n2)cc1C(=O)NCCC(C)c1ccccc1 (centres unmarked)", "His-GST-TVMV-hRIPK1(1-324) (Homo sapiens (Human), UniProt Q13546)", 8.70],
  ["COc1ncc(-c2ccc3nc(NC(=O)C(C)(C)C#N)cn3n2)cc1C(=O)NCc1cc(OC(F)(F)F)ccc1F", "His-GST-TVMV-hRIPK1(1-324) (Homo sapiens (Human), UniProt Q13546)", 6.55],
  ["CC(CCNC(=O)c1cccc(-c2ccc3nc(NC(=O)c4ccnc(F)c4)cn3n2)c1)c1ccccc1 (centres unmarked)", "His-GST-TVMV-hRIPK1(1-324) (Homo sapiens (Human), UniProt Q13546)", 8.30]
]}

Could I get pIC50 for every one of these entries?
1. CC(=O)Nc1cn2nc(-c3c(F)c(F)cc(C(=O)NCc4cc(OC(F)(F)F)ccc4F)c3F)ccc2n1
2. [2H]C([2H])([2H])Oc1ncc(-c2ccc3nc(NC(C)=O)cn3n2)cc1C(=O)NCc1cc(F)cc(F)c1OCC1CC1 [Example 55, TFA]
3. COc1ncc(-c2ccc3nc(NC(C)=O)cn3n2)cc1C(=O)NCc1cc(C(F)(F)F)ccc1Cl
4. [2H]C([2H])(NC(=O)c1cc(-c2ccc3nc(NC(C)=O)cn3n2)c(C)nc1C)c1cc(F)cc(F)c1OC1CCOCC1
5. COc1ncc(-c2ccc3nc(NC(C)=O)cn3n2)cc1C(=O)NCc1ccccc1OC(F)(F)F
6. COc1ncc(-c2ccc3nc(NC(C)=O)cn3n2)cc1C(=O)NCc1ccccc1OCC1CC1

result:
[7.60, 9.00, 7.02, 8.05, 7.77, 8.40]

Could I get pIC50 for every one of these entries?
1. CC(=O)Nc1cn2nc(-c3cc(C(=O)NCc4cc(F)cc(F)c4OCC4CC4)c(C)nc3C)ccc2n1
2. CC(=O)Nc1cn2nc(-c3cc(C(=O)NCc4cc(OC(F)(F)F)ccc4F)ccc3F)ccc2n1
3. COc1ncc(-c2ccc3nc(NC(C)=O)cn3n2)cc1C(=O)NCc1cccc(F)c1OC(C)C1CC1 (centres unmarked) [Example 134]
4. CC(=O)Nc1cn2nc(-c3cnc(C)c(C(=O)NCc4ccc(F)c(F)c4OCC4CC4)c3)ccc2n1
5. CC(=O)Nc1cn2nc(-c3cnc(C)c(C(=O)NCc4cc(F)ccc4OCC(F)(F)F)c3)ccc2n1

result:
1: 8.52; 2: 7.44; 3: 7.74; 4: 6.88; 5: 7.37

Could I get pIC50 for every one of these entries?
1. COc1ncc(-c2ccc3nc(NC(C)=O)cn3n2)cc1C(=O)N[C@H](C)c1ccccc1C(F)(F)F
2. COc1ncc(-c2ccc3nc(NC(C)=O)cn3n2)cc1C(=O)NCc1cc(F)cc(F)c1OC1CCOCC1 [Example 129, TFA]
3. Cc1nc(C)c(-c2ccc3nc(NC(=O)CO)cn3n2)cc1C(=O)NCc1cc(OC(F)(F)F)ccc1F
4. COc1nc(C)c(-c2ccc3nc(NC(C)=O)cn3n2)cc1C(=O)NCC[C@H](O)c1ccc(Cl)cc1
5. COc1ncc(-c2ccc3nc(NC(C)=O)cn3n2)cc1C(=O)NCc1cc(OC(F)(F)F)ccc1F [Example 154]
6. COCC(=O)Nc1cn2nc(-c3cnc(OC)c(C(=O)NCc4cc(OCC5CC5)ccc4F)c3)ccc2n1

result:
[7.44, 9.00, 7.89, 7.60, 7.89, 7.74]

Could I get pIC50 for every one of these entries?
1. COc1nc(C)c(-c2ccc3nc(NC(C)=O)cn3n2)cc1C(=O)NCc1c(F)cc(F)cc1OCC1CCCC1
2. COc1ncc(-c2ccc3nc(NC(C)=O)cn3n2)cc1C(=O)NCc1cc(F)cc(F)c1OC(C)C1CC1 (centres unmarked)

result:
[8.10, 8.40]

Data origin, for the record: patent US11440913B2
